Values from patent US12077503B2

Please go through the items and note down their pest or weed control at 62.5 g/ha.
- Test system: giant foxtail (Setaria faberi)
- ASSAY_PROCEDURE: Test G Pre-Emergence Protocol
- Assay type: in vivo
- CONDITION_DETAILS: Setaria faberi, pre-emergence, 312 h, 62.5 g ai/ha, evaluated after 13 days, 100=total damage to plant, 0=no damage to plant, read-out: plant damage rating, Foxtail, Giant
Respond with the bare value in %.

Quick one: pest or weed control at 62.5 g/ha of CN1C[C@H](c2ccc(C(F)(F)F)cc2)[C@@H](C(=O)Nc2ccc(F)cn2)C1=O (racemic) ?
70

Field request: pest or weed control at 62.5 g/ha | item: COc1c(Cl)ccc([C@H]2CN(C)C(=O)[C@@H]2C(=O)Nc2cccc(F)c2F)c1F (racemic)
80

Fill in the blank: the reported pest or weed control at 62.5 g/ha of Cc1cc(Cl)ncc1NC(=O)[C@@H]1C(=O)N(C)C[C@H]1c1ccc(C(F)(F)F)cc1 (racemic) is ____.
0

I'd like to know its pest or weed control at 62.5 g/ha. The compound in question is CN1C[C@@H](c2ccc(C(F)(F)F)cc2)[C@H](C(=O)Nc2c[nH]nc2Cl)C1=O (racemic)
0

Bench note: what pest or weed control at 62.5 g/ha did Cc1cc(NC(=O)[C@@H]2C(=O)N(C)C[C@H]2c2ccc(C(F)(F)F)cc2)ccn1 (racemic) show?
0

Which pest or weed control at 62.5 g/ha value is on record for Cc1cc(C(F)(F)F)ccc1[C@@H]1CN(C)C(=O)[C@H]1C(=O)Nc1ccccc1F (racemic) ?
70

Would you mind telling me what pest or weed control at 62.5 g/ha value was observed for CN1C[C@@H](c2ccc(C(F)(F)F)cc2)[C@H](C(=O)Nc2ccccn2)C1=O (racemic) ?
40

Fill in: pest or weed control at 62.5 g/ha of Cc1c(NC(=O)[C@@H]2C(=O)N(C)C[C@H]2c2ccc(C(F)(F)F)cc2)ccnc1Cl (racemic) is ___
10

###

I'd be grateful if you could share measured plant injury at 15.625 g/ha for these entries.
- Tested on: corn (Zea mays)
- ASSAY_PROCEDURE: Test G Post-Emergence Protocol
- Type: in vivo
- CONDITION_DETAILS: Zea mays, post-emergence, 312 h, 15.625 g ai/ha, evaluated after 13 days (100=total damage to plant; 0=no damage to plant), read-out: Corn damage rating
Only the number, expressed in %, is required.

Field request: plant injury at 15.625 g/ha | item: CN1C[C@H](c2ccc(C(F)(F)F)cc2)[C@@H](C(=O)Nc2cnccc2C#N)C1=O (racemic)
0

I am curious: what plant injury at 15.625 g/ha value has been reported for CSc1nc(N)cc(NC(=O)[C@@H]2C(=O)N(C)C[C@H]2c2ccc(C(F)(F)F)cc2)n1 (racemic) ?
0

Param item = Cc1cc(C#N)cc(C2CN(C)C(=O)C2C(=O)Nc2cccc(F)c2F)c1 (centres unmarked) ; retrieve measured plant injury at 15.625 g/ha.
0

Form field: reported plant injury at 15.625 g/ha of CN1C[C@@H](c2cc(Cl)nc(C(F)(F)F)c2)[C@H](C(=O)Nc2cccc(F)c2F)C1=O (racemic)
40

What value of plant injury at 15.625 g/ha has been reported for the following molecule? Cc1cc(NC(=O)[C@@H]2C(=O)N(C)C[C@H]2c2ccc(C(F)(F)F)cc2)ccn1 (racemic)
0

// lookup plant injury at 15.625 g/ha for CN1C[C@@H](c2cc(Cl)cc(C(F)(F)F)c2)[C@H](C(=O)Nc2ccccc2F)C1=O (racemic)
20

Item under review: CCOc1ccc(C2CN(C)C(=O)C2C(=O)Nc2cccc(F)c2F)cc1OCC (centres unmarked) . Reported plant injury at 15.625 g/ha?
0

Quick check: plant injury at 15.625 g/ha of CN1C[C@@H](c2ccc(C(F)(F)F)cc2)[C@H](C(=O)Nc2ccc(C(F)(F)F)nc2Cl)C1=O (racemic) ?
0

###

For each entry below, report its Plant response rating, Ryegrass, Italian value.
- Tested on: ryegrass, Italian (Italian ryegrass, Lolium multiflorum)
- ASSAY_PROCEDURE: Test A postemergence
- Type: in vivo
- CONDITION_DETAILS: Postemergence, 500 g ai/ha; 0 to 100 scale where 0 is no effect and 100 is complete control
Lab note: record the figure alone, no unit after it.

Give the reported Plant response rating, Ryegrass, Italian for O=C1NCC(c2cc(F)cc(C(F)(F)F)c2)C1C(=O)Nc1cccc(F)c1F (stereo not shown) (system: ryegrass, Italian (Italian ryegrass, Lolium multiflorum)).
60

Item O=C1NCC(c2c(F)cccc2F)C1C(=O)Nc1cccc(F)c1F (racemic) with ryegrass, Italian (Italian ryegrass, Lolium multiflorum) - Plant response rating, Ryegrass, Italian?
0

State its Plant response rating, Ryegrass, Italian on ryegrass, Italian (Italian ryegrass, Lolium multiflorum): C=C(C)CN1CC(c2cccc(C(F)(F)F)c2)C(C(=O)Nc2ccccc2F)C1=O (stereo not shown)
0

Notebook entry, ryegrass, Italian (Italian ryegrass, Lolium multiflorum) assay: Plant response rating, Ryegrass, Italian of C=C(C)CN1CC(c2cccc(C(F)(F)F)c2)C(C(=O)Nc2cccc(F)c2F)C1=O (stereo not shown) = ?
0

###

- System: pigweed (Amaranthus retroflexus)
- ASSAY_PROCEDURE: Test A postemergence
- Assay type: in vivo
- CONDITION_DETAILS: Postemergence, 500 g ai/ha; 0 to 100 scale where 0 is no effect and 100 is complete control
Criterion: Plant response rating, Pigweed strictly less than 30. Met: Criterion met. Not met: Criterion not met.

Does this compound meet the criterion Plant response rating, Pigweed < 30? CN1CC(c2cccc(C(F)(F)F)c2)C(C(=O)Nc2ccccc2[N+](=O)[O-])C1=O (stereo not drawn)
Criterion not met

Plant response rating, Pigweed strictly < 30 for this compound? O=C(Nc1cccc(F)c1F)C1C(=O)N(CC=CBr)CC1c1cccc(C(F)(F)F)c1 (stereo not drawn)
Criterion not met

Given O=C1NCC(c2ccc(C(F)(F)F)c(F)c2)C1C(=O)Nc1ccccc1F (racemic) , is recorded Plant response rating, Pigweed strictly lower than 30?
Criterion not met

Is Plant response rating, Pigweed of O=C1NCC(c2cc(C(F)(F)F)ccc2F)C1C(=O)Nc1ccccc1F (stereo not drawn) strictly below 30?
Criterion met

Does the reported Plant response rating, Pigweed of O=C1NCC(c2c(F)cccc2F)C1C(=O)Nc1ccc(F)cc1F (racemic) stay below 30?
Criterion met

For COc1c(F)ccc(NC(=O)C2C(=O)NCC2c2cc(F)cc(F)c2)c1F (racemic) , is the recorded Plant response rating, Pigweed below the cut-off of 30?
Criterion met

Lab note: confirm whether the reported Plant response rating, Pigweed for this compound is below 30, equality not counting. compound: CC(C)c1ccc(C2CNC(=O)C2C(=O)Nc2cccc(F)c2F)cc1 (stereo not drawn)
Criterion met

Regarding CCc1cccc(C2CN(C)C(=O)C2C(=O)Nc2ccc(F)cc2F)c1 (stereo not drawn) , kindly confirm whether its Plant response rating, Pigweed is beneath 30.
Criterion met

###

- Tested on: redroot pigweed (Amaranthus retroflexus)
- ASSAY_PROCEDURE: Test G Pre-Emergence Protocol
- Format: in vivo
- CONDITION_DETAILS: Amaranthus retroflexus, pre-emergence, 312 h, 250 g ai/ha, evaluated after 13 days, read-out: Pigweed, Redroot damage rating (100=total damage to plant; 0=no damage to plant)
READOUT_TYPE: pest or weed control at 250 g/ha (%)
Your answer is read as %, so omit the unit and give the number.

Which measured pest or weed control at 250 g/ha belongs to Cc1cncc(NC(=O)[C@@H]2C(=O)N(C)C[C@H]2c2ccc(C(F)(F)F)cc2)n1 (racemic) , tested on redroot pigweed (Amaranthus retroflexus)?
20

Give pest or weed control at 250 g/ha (redroot pigweed (Amaranthus retroflexus)) of the following compound: CN1C[C@@H](c2ccc(C(F)(F)F)cc2)[C@H](C(=O)Nc2ncc(C#N)s2)C1=O (racemic)
0

What measured pest or weed control at 250 g/ha is associated with Cc1c(NC(=O)[C@@H]2C(=O)N(C)C[C@H]2c2ccc(C(F)(F)F)cc2)ccnc1Cl (racemic) on redroot pigweed (Amaranthus retroflexus)?
10

For the record CC(C)OC(=O)c1cc([C@H]2CN(C)C(=O)[C@@H]2C(=O)Nc2ccccc2F)ccc1F (racemic) , what value of pest or weed control at 250 g/ha is listed for redroot pigweed (Amaranthus retroflexus)?
0

Find pest or weed control at 250 g/ha (redroot pigweed (Amaranthus retroflexus)) for the entry CC(C)Oc1cc(OC(F)(F)F)cc(C2CN(C)C(=O)C2C(=O)Nc2cccc(F)c2F)c1 (stereo not drawn)
10

Kindly state the measured pest or weed control at 250 g/ha obtained for CCOc1ccc(C2CN(C)C(=O)C2C(=O)Nc2cccc(F)c2F)cc1OCC (stereo not drawn) with redroot pigweed (Amaranthus retroflexus).
10

Record lookup: for redroot pigweed (Amaranthus retroflexus), what pest or weed control at 250 g/ha belongs to CN1C[C@H](c2cccc(C(F)F)c2)[C@@H](C(=O)Nc2ccccc2F)C1=O (racemic) ?
0

Record lookup: for redroot pigweed (Amaranthus retroflexus), what pest or weed control at 250 g/ha belongs to CN1C[C@@H](c2cc(Cl)nc(C(F)(F)F)c2)[C@H](C(=O)Nc2cccc(F)c2F)C1=O (racemic) ?
60

Given the entry CN1C[C@@H](c2ccc(C(F)(F)F)cc2)[C@H](C(=O)Nc2cc[nH]n2)C1=O (racemic) , what pest or weed control at 250 g/ha was observed with redroot pigweed (Amaranthus retroflexus)?
0

Short answer please: pest or weed control at 250 g/ha, redroot pigweed (Amaranthus retroflexus), entry C=Cc1cccc([C@@H]2CN(C)C(=O)[C@H]2C(=O)Nc2cccc(F)c2F)c1 (racemic)
20

Field: pest or weed control at 250 g/ha (redroot pigweed (Amaranthus retroflexus)). Entry: CON1C[C@H](c2ccc(C(F)(F)F)cc2)[C@@H](C(=O)Nc2cccc(F)c2F)C1=O (racemic)
50

For the record CC(C)c1cc([C@H]2CN(C)C(=O)[C@@H]2C(=O)Nc2cccc(F)c2F)cnn1 (racemic) , what value of pest or weed control at 250 g/ha is listed for redroot pigweed (Amaranthus retroflexus)?
0

Provide value of pest or weed control at 250 g/ha for this record tested with redroot pigweed (Amaranthus retroflexus): Cc1nc(NC(=O)[C@@H]2C(=O)N(C)C[C@H]2c2ccc(C(F)(F)F)cc2)ccc1Cl (racemic)
0

Entry Cc1cc(NC(=O)[C@@H]2C(=O)N(C)C[C@H]2c2ccc(C(F)(F)F)cc2)ccn1 (racemic) , system redroot pigweed (Amaranthus retroflexus): what pest or weed control at 250 g/ha was measured?
0

Report pest or weed control at 250 g/ha for CN1C[C@@H](c2ccc(C(F)(F)F)cc2)[C@H](C(=O)Nc2cnccn2)C1=O (racemic) tested on redroot pigweed (Amaranthus retroflexus).
0

Please tell me: pest or weed control at 250 g/ha of COC(=O)c1cc([C@H]2CN(C)C(=O)[C@@H]2C(=O)Nc2cccc(F)c2F)ccc1C (racemic) , system redroot pigweed (Amaranthus retroflexus)?
20

Give recorded pest or weed control at 250 g/ha with redroot pigweed (Amaranthus retroflexus) for the following compound: CN1C[C@H](c2ccc(C(F)(F)F)cc2)[C@@H](C(=O)Nc2cc(C#N)ccn2)C1=O (racemic)
0

API: value(readout=pest or weed control at 250 g/ha, system=redroot pigweed (Amaranthus retroflexus)) for record CN1C[C@H](c2ccc(C(F)(F)F)cc2)[C@@H](C(=O)Nc2ccc(F)cn2)C1=O (racemic)
80

Find the measured pest or weed control at 250 g/ha: item CSc1nc(N)cc(NC(=O)[C@@H]2C(=O)N(C)C[C@H]2c2ccc(C(F)(F)F)cc2)n1 (racemic) , target or system redroot pigweed (Amaranthus retroflexus).
0

Value wanted: pest or weed control at 250 g/ha (redroot pigweed (Amaranthus retroflexus)) of entry CC(C)S(=O)(=O)c1ccccc1NC(=O)[C@H]1C(=O)N(C)C[C@@H]1c1ccc(C(F)(F)F)cc1 (racemic)
20

Which measured pest or weed control at 250 g/ha belongs to CN1C[C@@H](c2ccc(C(F)(F)F)cc2)[C@H](C(=O)Nc2ccccc2)C1=O (racemic) , tested on redroot pigweed (Amaranthus retroflexus)?
20
